Test system: LPS-induced airways neutrophilia in mice
Assay: LPS-induced neutrophil accumulation in mice
Assay type: in vivo
Settings: Test Substance at 0.2 mg/mL, intra tracheal, dosed 8 hr pre-LPS challenge
Known % Inhibition of neutrophil accumulation in BAL of a selection of compounds
observation_type: % Inhibition of neutrophil accumulation in BAL (%)

line_notation	target_under_test	numeric_value
CC(C)(C)c1cc(NC(=O)Nc2ccc(Oc3ccnc(Nc4ccc5[nH]ncc5c4)n3)c3ccccc23)n(-c2ccc(OCCN3CCOCC3)cc2)n1	LPS-induced airways neutrophilia in mice	46
COc1ccc(-n2nc(C(C)(C)C)cc2NC(=O)Nc2ccc(Oc3ccnc(Nc4cc(C)c5[nH]ncc5c4)n3)c3ccccc23)cc1	LPS-induced airways neutrophilia in mice	50
COc1ccc(-n2nc(C(C)(C)C)cc2NC(=O)Nc2ccc(Oc3ccnc(Nc4ccc5[nH]ncc5c4)n3)c3ccccc23)cn1	LPS-induced airways neutrophilia in mice	50

====

Tested on: Poly I:C-induced ICAM-1 expression in BEAS2B cells
Experiment: Poly I:C-induced ICAM-1 expression in BEAS2B cells
Assay type: cell-based
Conditions: Homo sapiens, BEAS-2B, read-out: Poly IC induced ICAM1 in BEAS2B IC50
Flag rule - IC50 less than 3 nM flags MET; the remaining entries get NOT MET.

compound	group
CC(C)(C)c1cc(NC(=O)Nc2ccc(Oc3ccnc(Nc4ccc5[nH]ncc5c4)n3)c3ccccc23)n(-c2ccc(OCCN3CCOCC3)cc2)n1 [Example 12]	NOT MET
COc1ccc(-n2nc(C(C)(C)C)cc2NC(=O)Nc2ccc(Oc3ccnc(Nc4ccc5[nH]ccc5c4)n3)c3ccccc23)cc1 [Example 38]	MET
Cc1cc2cc(Nc3nccc(Oc4ccc(NC(=O)Nc5cc(C(C)(C)C)nn5-c5ccc(OCCN6CCOCC6)cc5)c5ccccc45)n3)ccc2[nH]1 [Example 66]	NOT MET
Cc1ccc(-n2nc(C(C)(C)C)cc2NC(=O)Nc2ccc(Oc3ccnc(Nc4ccc5c(c4)CC(=O)N5C)n3)c3ccccc23)cc1 [Example 20]	NOT MET
Cc1ccc(-n2nc(C(C)(C)C)cc2NC(=O)Nc2ccc(Oc3ccnc(Nc4ccc5cn[nH]c5c4)n3)c3ccccc23)cc1 [Example 24]	MET
Cc1ccc(-n2nc(C(C)(C)C)cc2NC(=O)Nc2ccc(Oc3ccnc(Nc4cccc5cc[nH]c45)n3)c3ccccc23)cc1 [Example 17]	NOT MET
Cc1ccc(-n2nc(C(C)(C)C)cc2NC(=O)Nc2ccc(Oc3ccnc(Nc4ccc5c(c4)OCO5)n3)c3ccccc23)cc1 [Example 33]	MET
Cc1ccc(-n2nc(C(C)(C)C)cc2NC(=O)Nc2ccc(Oc3ccnc(Nc4ccc5c(c4)ncn5C)n3)c3ccccc23)cc1 [Example 4]	MET
CC(C)(C)c1cc(NC(=O)Nc2ccc(Oc3ccnc(Nc4ccc5[nH]ncc5c4)n3)c3ccccc23)n(-c2ccc(OCCN3CCOCC3)nc2)n1 [Example 15]	MET
Cc1cc(Nc2nccc(Oc3ccc(NC(=O)Nc4cc(C(C)(C)C)nn4-c4ccc(=O)n(CCO)c4)c4ccccc34)n2)cc2cn[nH]c12 [Example 87]	MET
Cc1ccc(-n2nc(C(C)(C)C)cc2NC(=O)Nc2ccc(Oc3ccnc(Nc4ccc5ncn(C)c5c4)n3)c3ccccc23)cc1 [Example 31]	MET
CC(C)(C)c1cc(NC(=O)Nc2ccc(Oc3ccnc(Nc4ccc5[nH]ncc5c4)n3)c3ccccc23)n(-c2ccc(=O)n(CCO)c2)n1 [Example 86]	NOT MET
Cc1ccc(-n2nc(C(C)(C)C)cc2NC(=O)Nc2ccc(Oc3ccnc(Nc4cnc5[nH]ncc5c4)n3)c3ccccc23)cc1 [Example 6]	MET
Cc1cc(Nc2nccc(Oc3ccc(NC(=O)Nc4cc(C(C)(C)C)nn4-c4cccc(OCCN5CCOCC5)c4)c4ccccc34)n2)cc2cn[nH]c12 [Example 56]	NOT MET
Cc1ccc(-n2nc(C(C)(C)C)cc2NC(=O)Nc2ccc(Oc3ccnc(Nc4ccc5c(cnn5CCN5CCOCC5)c4)n3)c3ccccc23)cc1 [Example 29]	MET
CC(C)(C)c1cc(NC(=O)Nc2ccc(Oc3ccnc(Nc4ccc5[nH]ncc5c4)n3)c3ccccc23)n(-c2ccc(O)cc2)n1 [Example 7]	NOT MET
CC(C)(C)c1cc(NC(=O)Nc2ccc(Oc3ccnc(Nc4ccc5c(c4)OCO5)n3)c3ccccc23)n(-c2ccc(OCCN3CCOCC3)cc2)n1 [Example 65]	NOT MET
CC(C)(C)c1cc(NC(=O)Nc2ccc(Oc3ccnc(Nc4ccc5[nH]c(=O)oc5c4)n3)c3ccccc23)n(-c2ccc(OCCN3CCOCC3)cc2)n1 [Example 77]	NOT MET
Cc1ccc(-n2nc(C(C)(C)C)cc2NC(=O)Nc2ccc(Oc3ccnc(Nc4ccc5ncsc5c4)n3)c3ccccc23)cc1 [Example 35]	MET
COc1ccc(-n2nc(C(C)C)cc2NC(=O)Nc2ccc(Oc3ccnc(Nc4cc(C)c5[nH]ncc5c4)n3)c3ccccc23)cc1 [Example 9]	MET
CC(C)(C)c1cc(NC(=O)Nc2ccc(Oc3cc(Nc4ccc5[nH]ncc5c4)ncn3)c3ccccc23)n(-c2ccc(OCCN3CCOCC3)cc2)n1 [Example 70]	NOT MET
Cc1cc(Nc2nccc(Oc3ccc(NC(=O)Nc4cc(C(C)C)nn4-c4cccc(OCCN5CCOCC5)c4)c4ccccc34)n2)cc2cn[nH]c12 [Example 55]	NOT MET
CC(C)c1cc(NC(=O)Nc2ccc(Oc3ccnc(Nc4ccc5[nH]ncc5c4)n3)c3ccccc23)n(-c2ccc(OCCN3CCOCC3)cc2)n1 [Example 69]	NOT MET
COCC(=O)Nc1cc(Oc2ccc(NC(=O)Nc3cc(C(C)(C)C)nn3-c3ccc(C)cc3)c3ccccc23)ccn1 [Reference Compound, reference compound]	MET

====

Molecular target: GSK3α (Homo sapiens (Human))
Sequence (P49840 whole entry): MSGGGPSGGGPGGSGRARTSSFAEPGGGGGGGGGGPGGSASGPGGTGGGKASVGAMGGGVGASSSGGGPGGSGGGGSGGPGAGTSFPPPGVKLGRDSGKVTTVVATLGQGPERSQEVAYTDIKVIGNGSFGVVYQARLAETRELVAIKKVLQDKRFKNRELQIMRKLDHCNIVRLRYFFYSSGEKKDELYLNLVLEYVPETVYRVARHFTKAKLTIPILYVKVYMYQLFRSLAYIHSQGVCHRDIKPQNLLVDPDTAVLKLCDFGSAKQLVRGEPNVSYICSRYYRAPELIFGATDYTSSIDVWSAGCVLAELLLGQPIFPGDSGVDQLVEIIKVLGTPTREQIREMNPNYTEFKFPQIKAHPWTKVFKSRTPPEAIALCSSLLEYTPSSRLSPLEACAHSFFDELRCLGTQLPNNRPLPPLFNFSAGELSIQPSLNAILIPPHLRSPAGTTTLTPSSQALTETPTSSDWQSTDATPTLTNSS
Flag rule - IC50 less than 2000 nM flags 1; the remaining entries get -1.

compound	group
CC(C)(C)c1cc(NC(=O)Nc2ccc(Oc3ccnc(Nc4ccc5[nH]ncc5c4)n3)c3ccccc23)n(-c2ccc(OCCN3CCOCC3)cc2)n1 [Example 12]	-1
Cc1ccc(-n2nc(C(C)(C)C)cc2NC(=O)Nc2ccc(Oc3ccnc(Nc4ccc5[nH]cnc5c4)n3)c3ccccc23)cc1 [Example 30]	1
CC(C)(C)c1cc(NC(=O)Nc2ccc(Oc3ccnc(Nc4ccc5c(c4)OCO5)n3)c3ccccc23)n(-c2ccc(OCCN3CCOCC3)cc2)n1 [Example 65]	-1
COc1ccc(-n2nc(C(C)(C)C)cc2NC(=O)Nc2ccc(Oc3ccnc(Nc4ccc5[nH]ncc5c4)n3)c3ccccc23)cc1 [Example 40]	-1
CC(C)(C)c1cc(NC(=O)Nc2ccc(Oc3ccnc(Nc4ccc5sncc5c4)n3)c3ccccc23)n(-c2ccc(OCCN3CCOCC3)cc2)n1 [Example 78]	-1
Cc1ccc(-n2nc(C(C)(C)C)cc2NC(=O)Nc2ccc(Oc3ccnc(Nc4ccc5ncn(C)c5c4)n3)c3ccccc23)cc1 [Example 31]	1

====

Test system: LPS-induced IL-8 release in d-U937 cells
Experiment: LPS-induced IL-8 release in d-U937 cells
Type: cell-based
Details: Homo sapiens, dU937, read-out: LPS Induced Release of Cytokine in d-937 Cells IL-8 IC50
observation_type: log10(IC50) (log10 of the value in nM)

line_notation	numeric_value
COc1ccc(-n2nc(C(C)(C)C)cc2NC(=O)Nc2ccc(Oc3ccnc(Nc4ccc5[nH]nc(C(=O)N6CCOCC6)c5c4)n3)c3ccccc23)cn1	0.94
COc1ccc(-n2nc(C(C)(C)C)cc2NC(=O)Nc2ccc(Oc3ccnc(Nc4ccc5[nH]ccc5c4)n3)c3ccccc23)cn1	0.38
COc1ccc(-n2nc(C(C)C)cc2NC(=O)Nc2ccc(Oc3ccnc(Nc4cc(C)c5[nH]ncc5c4)n3)c3ccccc23)cc1	0.59
Cc1cc(Nc2nccc(Oc3ccc(NC(=O)Nc4cc(C(C)(C)C)nn4-c4cccc(CN5CCCC5=O)c4)c4ccccc34)n2)cc2cn[nH]c12	0.08
CC(C)c1cc(NC(=O)Nc2ccc(Oc3ccnc(Nc4ccc5c(c4)NC(=O)C5)n3)c3ccccc23)n(-c2ccc(OCCN3CCOCC3)cc2)n1	1.93
Cc1cc(Nc2nccc(Oc3ccc(NC(=O)Nc4cc(C(C)(C)C)nn4-c4cccc(OCCN5CCOCC5)c4)c4ccccc34)n2)cc2cn[nH]c12	1.04
CC(C)c1cc(NC(=O)Nc2ccc(Oc3ccnc(Nc4ccc5[nH]ncc5c4)n3)c3ccccc23)n(-c2ccc(=O)n(CCO)c2)n1	1.74
CC(C)(C)c1cc(NC(=O)Nc2ccc(Oc3ccnc(Nc4ccc5[nH]c(=O)oc5c4)n3)c3ccccc23)n(-c2ccc(OCCN3CCOCC3)cc2)n1	0.49
CC(C)(C)c1cc(NC(=O)Nc2ccc(Oc3ccnc(Nc4ccc5c(c4)OCO5)n3)c3ccccc23)n(-c2ccc(OCCN3CCOCC3)cc2)n1	1.32
Cc1cc(Nc2nccc(Oc3ccc(NC(=O)Nc4cc(C(C)(C)C)nn4-c4ccc(OCCN5CCOCC5)cc4)c4ccccc34)n2)cc2cn[nH]c12	0.41
COc1ccc(-n2nc(C(C)(C)C)cc2NC(=O)Nc2ccc(Oc3ccnc(Nc4ccc5[nH]ncc5c4)n3)c3ccccc23)cc1	0.86
CC(C)(C)c1cc(NC(=O)Nc2ccc(Oc3ccnc(Nc4ccc5c(c4)CCC5)n3)c3ccccc23)n(-c2ccc(OCCN3CCOCC3)cc2)n1	1.23
CC(C)(C)c1cc(NC(=O)Nc2ccc(Oc3ccnc(Nc4ccc5c(c4)NC(=O)C5)n3)c3ccccc23)n(-c2ccc(OCCN3CCOCC3)nc2)n1	0.61
Cc1ccc(-n2nc(C(C)(C)C)cc2NC(=O)Nc2ccc(Oc3ccnc(Nc4cnc5[nH]ccc5c4)n3)c3ccccc23)cc1	-0.22
Cc1ccc(-n2nc(C(C)(C)C)cc2NC(=O)Nc2ccc(Oc3ccnc(Nc4ccc5c(c4)CC(=O)N5)n3)c3ccccc23)cc1	0.28
Cc1ccc(-n2nc(C(C)(C)C)cc2NC(=O)Nc2ccc(Oc3ccnc(Nc4ccc5c(c4)ncn5C)n3)c3ccccc23)cc1	0.30
CC(C)(C)c1cc(NC(=O)Nc2ccc(Oc3ccnc(Nc4ccc5c(cnn5CCN5CCOCC5)c4)n3)c3ccccc23)n(-c2ccc(OCCN3CCOCC3)nc2)n1	1.06
CC(C)(C)c1cc(NC(=O)Nc2ccc(Oc3ccnc(Nc4ccc5[nH]ncc5c4)c3)c3ccccc23)n(-c2ccc(OCCN3CCOCC3)cc2)n1	-0.52
Cc1ccc(-n2nc(C(C)(C)C)cc2NC(=O)Nc2ccc(Oc3ccnc(Nc4ccc5c(cnn5CCN5CCOCC5)c4)n3)c3ccccc23)cc1	1.32
COc1ccc(-n2nc(C(C)(C)C)cc2NC(=O)Nc2ccc(Oc3ccnc(Nc4ccc5[nH]ncc5c4)n3)c3ccccc23)cn1	-0.30
Cc1ccc(-n2nc(C(C)(C)C)cc2NC(=O)Nc2ccc(Oc3ccnc(Nc4ccc5[nH]ccc5c4)n3)c3ccccc23)cc1	0.34
CC(C)(C)c1cc(NC(=O)Nc2ccc(Oc3ccnc(Nc4ccc5[nH]ncc5c4)n3)c3ccccc23)n(-c2ccc(=O)n(CCN3CCOCC3)c2)n1	2.18
CC(C)(C)c1cc(NC(=O)Nc2ccc(Oc3ccnc(Nc4ccc5[nH]ncc5c4)n3)c3ccccc23)n(-c2ccc(OCCN3CCOCC3)nc2)n1	0.20
